- System: IGROV1 ovarian
- TEST SUMMARY: NCI-60 one-dose screen, 48 h
- EXPERIMENTAL CONTEXT: 10 µM unless noted
About 83,000 compounds went through this panel and 20% of them were active in at least one assay; those are over-represented in the sample as a whole. The source made the active and inactive calls. How the source made its calls: active means growth percent below 10; inactive means the rest.
Bench note: report the call from true (1) (active), false (0) (inactive)

# example entries with known answers
* Cn1cc(-c2ccc3ncc(-c4ccc(CC(=O)Nc5cc(C(C)(C)C)nn5C)cc4)cc3c2)cn1 | true (1)
* OC(CBr)c1ccnc2ccccc12 (stereo not drawn) | false (0)

Next compound, please.
Tell me the assay call for COc1cc2oc(-c3cccc(C(=O)Nc4ccc(C)cc4)c3)cc(=O)c2c(OC)c1OC please.
false (0)

Source: PubChem BioAssay (NCI)
